ASSAY_METRIC: melting point

Consider the compound C[C@@H](OC(=O)Nc1ccc(-c2cc3ccc(Oc4nccnc4C#N)cc3n2CC2CC2)cc1)C1CC1 [Compound 3283] . State its measured melting point.
145 to 147 °C

Consider the compound CC(C)NS(=O)(=O)Nc1ccc(-c2c(C#N)c3ccc(OC4CCOCC4)cc3n2C2CCC2)cc1 [Compound 2786] . State its measured melting point.
183 to 185 °C

Consider the compound N#Cc1c(-c2ccc(N3CCCS3(=O)=O)cc2)n(C2CC2)c2cc(N3CCOCC3)ccc12 [Compound 2927] . State its measured melting point.
260 to 265 °C

Consider the compound CCn1c(-c2ccc(NS(=O)(=O)CC)cc2)c(C#N)c2ccc(C(=O)O)cc21 [Compound 1344] . State its measured melting point.
294 to 296 °C

Consider the compound CCn1c(-c2ccc(NC(=O)OC3CCCC3)cc2)c(C#N)c2ccc(OCCOC)cc21 [Compound 1407] . State its measured melting point.
137 to 140 °C

This collection of values is drawn from patent US7772271B2.
